Molecular target: Large T antigen (Simian virus 40)
Assay: SV40 large T antigen inhibitors, biochemical (AID 1903)
Details: SV40 large T antigen ATPase/helicase inhibition assay; at 20 µM; active compounds read high
About 1,200 (0.39%) of roughly 310,000 compounds were called active. The list is a sample of the results. Measured potencies and affinities stand elsewhere.
parameter_measured: inhibition

Please review the entries below; each comes with its answer.
{"compound_structure": "CCCN(CC(=O)Nc1ccc(Cl)cc1Cl)Cc1cc(=O)n2ccsc2n1", "inhibition": "-0.76% (inactive)"}
{"compound_structure": "COc1cc(Cl)ccc1NC(=O)COc1ccccc1C(=O)NN", "inhibition": "6.94% (inactive)"}
{"compound_structure": "COc1cc(/C=C/C(=O)O)ccc1O", "inhibition": "24.2% (inactive)"}

Kindly consider the entry below.
Lookup: Entry Cc1ccc(/C=C/C(=O)c2ccccc2O)cc1 , system Large T antigen (Simian virus 40): what inhibition was measured?
Found: 11.7% (inactive)

* * *

Biological target: Large T antigen (Simian virus 40)
Assay: SV40 large T antigen inhibitors, biochemical (AID 1903)
Conditions: SV40 large T antigen ATPase/helicase inhibition assay; at 20 µM; active compounds read high
Screen size: about 310,000 compounds; about 1,200 (0.39%) were called active. Not all results are given here. Results with a measured potency or affinity are listed apart.
parameter_measured: inhibition (%)
Give bare numbers, in %.

Please review the entries below; each comes with its answer.
{"compound": "N=C1/C(=C\\c2ccc(SCc3ccccc3)o2)C(=O)N=C2SC=NN12", "experimental_target": "Large T antigen (Simian virus 40)", "parameter_measured": "inhibition", "data_value": -0.34}
{"compound": "COC(=O)[C@@]12CCCN1[C@H](c1ccc(-c3ccc(F)cc3)cc1)[C@H]1C(=O)N(C)C(=O)[C@H]12", "experimental_target": "Large T antigen (Simian virus 40)", "parameter_measured": "inhibition", "data_value": 5.03}
{"compound": "N#C/C(=C\\c1ccc(O)c(Br)c1)C(=O)N1CCCCC1", "experimental_target": "Large T antigen (Simian virus 40)", "parameter_measured": "inhibition", "data_value": 9.59}
{"compound": "CCC1=NN2C(=N)/C(=C\\c3ccc(SCc4ccco4)o3)C(=O)N=C2S1", "experimental_target": "Large T antigen (Simian virus 40)", "parameter_measured": "inhibition", "data_value": 0.38}
{"compound": "O=c1oc(/C=C/c2ccc([N+](=O)[O-])s2)nc2ccccc12", "experimental_target": "Large T antigen (Simian virus 40)", "parameter_measured": "inhibition", "data_value": 6.31}
{"compound": "CC(C)c1ccc(NC(=O)CSc2ncccc2C(=O)Oc2cccc([N+](=O)[O-])c2)cc1", "experimental_target": "Large T antigen (Simian virus 40)", "parameter_measured": "inhibition", "data_value": 16.9}

Consider the following items and state reported inhibition for each.
1. Cc1ccc(S(=O)(=O)N2[C@@H](c3ccccc3)C(C(=O)O)=CC[C@H]2c2ccc(Cl)cc2)cc1
2. COC(=O)c1ccc(OC)c(NS(=O)(=O)c2ccc(-n3cnnn3)cc2)c1
3. C/C(Cn1nc([N+](=O)[O-])cc1C)=N\NC(=O)c1ccc(C(C)(C)C)cc1
4. COc1ccc(-c2noc(Cc3ccccc3OC)n2)cc1
5. O=C1C2C3C=CC(CC3)C2C(=O)N1/N=C/c1ccc(O)cc1 (stereo not given)
6. CC1=NN2C(=N)/C(=C\c3ccc(SCc4ccccc4)o3)C(=O)N=C2S1

Found:
[17.2, 2.42, 9.13, 5.97, 22.8, 15.7]
